Reported Enzyme Activity Endpoint Assay: scIgG by item:
target: pooled human IgG (human IgG1, 2, 3 and 4)
API: value field is a number in ng/µL; no unit string.

protein	experimentalReadout	endpointValue
PRT-486 (protein) MVTSVWTKGVTPPTDFIKGEDVFHAPYKAGQGWYDITKTFNGKDNLLCGAATAGNMLHWWFDQNKDQIERYLKEHPEKQKIIFNNQELFDLKAAIDTKDSQTDSKLFEYFKEKAFPYLSTKHLGVFPDHVLDMFINGYRLSLTNHGPTPVKEGSKDKRGGIFDAVFTRGVQSKLLTSRHDFKEKTLKEISDLIKQELTEGKALGLSHTYANVRINHVINLWGADFDSEGNLKAIYVTDSDTNASIGMKKYFVGVNSAGKVAISAKEIKEDNIGAQVLGLFTLSTGQDIWNQTNLEHHHHHH	Enzyme Activity Endpoint Assay: scIgG	627
PRT-595 (protein) MANQEIRYSEETPSTITSVWTKGVTPPTDFIQNEDVLHAPYIANQGWYDITKTFNGKDDLLCGAATAGNMLHWWFDQNKEQIENYLKKHPEKQKINFNGEQMFDVKEAIDTKDSQTDSALFEYFKDKAFPYLSTKHLGVFPDHVIDMFINGYRLSLTNHGPTPVKRGTKDPRGGIFDAVFTRGDQSKLLTSRHDFKEKNLNEISDLIKQELTEGKALGLSHTYANVRINHVINLWGADFNAEGNLEAIYVTDSDSNASIGMKKYYVGVNSAGKVAISAKEIEGDNIGAQVLGLFTLSTGQDIWNQTNLEHHHHHH	Enzyme Activity Endpoint Assay: scIgG	0
PRT-246 (protein) MVTSVWTKGVTPPANFTQGEDVFHAPYVANQGWYDITKLFNGKDDLLCGAATAGNMLHWWFDQNKDQIKRYLEEHPEKQKINFNGEQMFDVKEAIDTKNHQLDSKLFDYFKEKAFPYLSTKHLGVFPDHVIDMFINGYRLSLTNHGPTPVKEGSKDPRGGIFDAVFTRGDQSKLLTSRHDFKEKNLKEISDLIKKELTEGKALGLSHTYANVRINHVINLWGADFDSNGNLKAIYVTDSDSNPSIGMKKYFVGVNSSGKVAISAKEIKEDNIGAQVLGLFTLSTGQDSWNQTN	Enzyme Activity Endpoint Assay: scIgG	221

# evaluate next
Problem: Give the measured Enzyme Activity Endpoint Assay: scIgG for PRT-555 (protein) MANQEIRYSEETPKTITSVWTKGVTPPTDFIKNEDVLHAPYVANQGWYDITKTFNGKDDLLCGAATAGNMLHWWFDQNKEEIERYLKKHPEKQKINFNGEQMFDVKEAIDTKDSQTDSKLFEYFKDKAFPYLSTKHLGVFPDHVIDMFINGYRLSLTNHGPTPVKRGTKDPRGGIFDAVFTRGDQSKLLTSRHDFKEKTLNEISDLIKQELQEGKALGLSHTYANVRINHVINLWGADFDSEGNLEAIYVTDSDSNASIGMKKYYVGVNSAGKVAISAKEIEDDNIGAQVLGLFTLSTGKDIWEQTNLEHHHHHH
Result: 0
